Assay: Solubility in water and organic solvents
Settings: phosphate buffer, pH 7.4, aqueous buffer
reported.property: solubility

CCCCCCCCCCCCCCCC(=O)NCCOP(=O)(O)OCC(O)CO (centres unmarked) [Example 16, N-palmitoylethanolamine glycerophosphate]; > 1000 µg/mL

# context switch: different molecule, same solubility
Retrieve solubility measured for CCCCCCCCCCCCCCCC(=O)NCCOP(=O)(O)O [Example 27, N-palmitoylethanolamide phosphate] and print it.
> 1000 µg/mL

---

Assay: Solubility in water and organic solvents
Conditions: water
reported.property: solubility

Retrieve solubility measured for O=C(/C=C/CCCCCCCCC(=O)NCCO)NCCO [Example 26] and print it.
> 10000 µg/mL
